test system: HEK293 cells; assay: Preliminary screening as mRNA vectors, EGFP mRNA transfection of HEK293 cells; format: cell-based; conditions: HEK293 cells, 96-well plates, EGFP mRNA 50 ng per well; percentage of GFP fluorescent cells relative to total number of cells (Hoechst)
What Absolute mRNA transfection efficiency in HEK293 cells was measured for each of the following?
One number for each entry, in %.

// each compound listed below needs its Absolute mRNA transfection efficiency in HEK293 cells
1. CCCCCCCCCCCCCCCCSc1nc(NCCN2CCN(C)CC2)nc(SCCCCCCCCCC)n1
2. CCCCCCCCCCCCSc1nc(NCCN2CCOCC2)nc(SCCCCCCCCCCCC)n1

result:
13.6
0.0

// each compound listed below needs its Absolute mRNA transfection efficiency in HEK293 cells
1. CCCCCCCCCCCCNc1nc(NCCCCCCCCCCCC)nc(NCC2CCN(C)CC2)n1
2. CCCCCCCCNc1nc(NCCCCCC)nc(NCCN(CC)CC)n1
3. CCCCCCCCCCCCCCCCCCSc1nc(NCCCN(C)C)nc(SCCCCCCCCCCCCCC)n1

result:
0.6
0.1
0.2
